Hello, the source for this data is ChEMBL document CHEMBL1135870, in case you need it.

test: The ionization constant for the compound was tested using a potentiometric method.; type: physicochemical
Outcome Measure: pKa

Compound	Quantitative Readout
OCC(O)CNc1cc(-c2ccccc2)nc2ccccc12 (stereo not drawn)	8.4

P = Nc1cc(-c2ccccc2)nc2ccccc12
Q = c1ccc(-c2ccc3ccccc3n2)cc1
// compare measured pKa, left P , right Q , return larger Give the chosen item's label as your response.
P

* * *

test system: Mus musculus; experiment: In vivo effective dose required for 50% inhibition of sound induced seizures upon intraperitoneal dose, 30 min before testing in DBA/2 mice.; format: functional; details: ip
Readings of ED50 for the listed molecules
The answer is to be given in mg/kg; state only the numeric part.

Structure As Smiles	Output Unit	Quantitative Readout
Cc1ccc(-c2cc(NC[C@H](C)O)c3ccccc3n2)cc1Cl	mg/kg	12

The recorded ED50 for COc1ccc(-c2cc(NC[C@H](C)O)c3ccccc3n2)cc1C is 17

The recorded ED50 for COc1ccc(-c2cc(NCCO)c3ccccc3n2)cc1 is 25

* * *

biological target: Glutamate NMDA receptor; experiment: Binding affinity against N-methyl-D-aspartate glutamate receptor using [3H]25-6981 as radioligand.
pKi: −log10 of the molar value.
Outcome Measure: pKi

Previously resolved entries follow.
Compound	System Under Test	pKi
CCCNc1cc(-c2ccccc2)nc2ccccc12	Glutamate NMDA receptor	5.31
Nc1cc(-c2ccccc2)nc2ccccc12	Glutamate NMDA receptor	6.38

1 = OCC(O)CNc1cc(-c2ccc3c(c2)CCCC3)nc2ccccc12 (centres undefined)
2 = COCCNc1cc(-c2ccccc2)nc2ccccc12
// compare measured pKi, left 1 , right 2 , return larger Give the chosen item's label as your response.
1
(1: 7.66, 2: 5.12)

* * *

target: Glutamate NMDA receptor; test: Binding affinity against N-methyl-D-aspartate glutamate receptor using [3H]25-6981 as radioligand.
Outcome Measure: Ki (µM)

Molecule	Output Unit	Ki
COc1ccc(-c2cc(NCCO)c3ccccc3n2)cc1	µM	0.015
OCCNc1cc(N2CCc3ccccc3C2)nc2ccccc12	µM	0.0035

1 = Cc1ccc(-c2cc(NCC(O)CO)c3ccccc3n2)cc1 (configuration not stated)
2 = COc1ccc(-c2cc(NC[C@H](C)O)c3ccccc3n2)cc1C
Which of these two has the smaller recorded Ki: 1 or 2 ? Give the chosen item's label as your response.
2
(2: 0.01 µM, 1: 0.023 µM)

P = COc1ccc(-c2cc(NCC(O)CO)c3ccccc3n2)cc1C (configuration not stated)
Q = Cc1ccc(-c2cc(NCC(O)CO)c3ccccc3n2)cc1Cl (configuration not stated)
R = Cc1ccc(-c2cc(NC[C@H](C)O)c3ccccc3n2)cc1Cl
S = C[C@@H](O)CNc1cc(-c2ccccc2)nc2ccccc12
T = Cc1ccccc1-c1cc(NCC(O)CO)c2ccccc2n1 (configuration not stated)
# ascending order, key=Ki Note for the reader: the ranking is given by listing the labels in the order requested.
R, Q, P, S, T

* * *

target: Glutamate NMDA receptor; experiment: Binding affinity against N-methyl-D-aspartate glutamate receptor using [3H]25-6981 as radioligand.
Outcome Measure: Ki (nM)

Previously resolved entries follow.
Compound	Ki / nM
OCC(O)CNc1cc(-c2ccc(Cl)cc2)nc2ccccc12 (configuration not stated)	100
CCCCc1cc(NCC(O)CO)c2ccccc2n1 (configuration not stated)	33000
CC(O)CNc1cc(-c2ccccc2)nc2ccccc12 (configuration not stated)	260
OCC(O)CNc1cc(C2CCc3ccccc3C2)nc2ccccc12 (stereo in doubt; 19)	100
OCC(O)CNc1cc(C2CCc3ccccc3C2)nc2ccccc12 (stereo in doubt; 20)	11

I = OCCNc1cc(-c2ccccc2)nc2ccccc12
II = OCC(O)CNc1cc(-c2ccccc2)nc2ccccc12 (configuration not stated)
III = CC(C)Oc1ccc(-c2cc(NCC(O)CO)c3ccccc3n2)cc1 (configuration not stated)
IV = CC(=O)CNc1cc(-c2ccccc2)nc2ccccc12
V = COc1ccc(-c2cc(NCC(O)CO)c3ccccc3n2)cc1 (configuration not stated)
# ascending order, key=Ki Note for the reader: the ranking is given by listing the labels in the order requested.
V, I, II, III, IV
(V: 19 nM, I: 110 nM, II: 260 nM, III: 500 nM, IV: 7900 nM)

* * *

biological target: Glutamate NMDA receptor; assay: Binding affinity against N-methyl-D-aspartate glutamate receptor using [3H]25-6981 as radioligand.
pKi: −log10 of the molar value.
Readings of pKi for the listed compounds

Compound	pKi
C[C@H](O)CNc1cc(-c2ccccc2)nc2ccccc12	7.12

The recorded pKi for Cc1cc(NCC(O)CO)c2ccccc2n1 (stereo not drawn) is < 4.40

The recorded pKi for OCC(O)CNc1cc(-c2ccc(O)cc2)nc2ccccc12 (stereo not drawn) is < 5.40
